biological target: UniProt P03427
Sequence (P03427 318-486 limits assumed): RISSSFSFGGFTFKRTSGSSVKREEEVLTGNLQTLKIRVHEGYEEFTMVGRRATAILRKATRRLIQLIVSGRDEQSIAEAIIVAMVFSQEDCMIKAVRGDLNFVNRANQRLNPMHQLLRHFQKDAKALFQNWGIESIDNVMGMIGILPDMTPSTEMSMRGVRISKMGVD
Reported pKd values for the following compounds.
Conceptually, pKd converts a concentration in mol/L into minus its log10.

Before answering, review these 3 worked examples.
1) C=CCn1cc(-c2cc(-c3ccc(C(=O)O)cc3)[nH]c(=N)c2C#N)cn1 [12C5]: 5.61
2) O=C(NCc1nc(C2CCCCC2)no1)c1cc(-c2ccccc2F)n[nH]1 [11C8]: 5.21
3) Cc1cccnc1CCNc1nc2nonc2nc1NCc1cccs1 [21B1]: 5.71

// fetch UniProt P03427 pKd for C=CCn1cc(CNCc2noc(-c3ccc4c(c3)OCO4)n2)c(C)n1 [11D4]
5.73

// fetch UniProt P03427 pKd for c1csc(CNc2nc3nonc3nc2NCCCN2CCOCC2)c1 [11D2]
6.68

// fetch UniProt P03427 pKd for CCSc1ncc(-c2cc(-c3c(C)nn(C)c3C)nc(N)c2C#N)cn1 [21A5]
6.27
